Target: T1, human LILRB4 extracellular domain (ECD) recombinant protein (human, UniProt Q8NHJ6 22-259)
T1 construct: extracellular domain; also called LILRB4 ECD; LILRB4-ECD
Assay: Octet
measured_parameter: koff (s⁻¹)

{"binder": "h193 antibody No. 36 (h193-H7 / h193-K2) (antibody, V domains shown) VH: EVQLVESGGGLVQPGGSLRLSCAASGFSLSSSYWISWVRQAPGKGLEWIGSIDSGSVGITYYATWVKGRFTISRDNSKNTLYLQMNSLRAEDTAVYYCARHGDNWALDLWGQGTLVTVSS VL: DLVMTQSPSTLSASVGDRVTITCQASQSINSWLAWYQQKPGKPPKLLIYKASTLASGVSSRFSGSGSGTEFTLTISSLQPDDVATYYCQHGYIRGDLDNVFGGGTKVEIK", "measured_parameter": "koff", "recorded_measurement": 0.000144}
{"binder": "h193 antibody No. 20 (h193-H3 / h193-K2) (antibody, V domains shown) VH: EVQLVESGGGLVQPGGSLRLSCAASGFSLSSSYWISWVRQAPGKGLEWIGSIDSGSVGITYYATWAKGRFTISRDNSKNTLYLQMNSLRAEDTAVYYCARHGDNWALDLWGQGTLVTVSS VL: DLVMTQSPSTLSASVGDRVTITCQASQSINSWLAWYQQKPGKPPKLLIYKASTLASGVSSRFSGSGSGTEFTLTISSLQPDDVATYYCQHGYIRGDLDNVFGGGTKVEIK", "measured_parameter": "koff", "recorded_measurement": 0.00025}

The reported measurements were obtained from patent US20210371518A1.
